test: Oral bioavailability in C57BL/6J mouse at 20 mg/kg measured up to 8 hrs; type: ADME, organism-based; conditions: in vivo
Assay metric: bioavailability (%)
Report the value in % with no unit label.

Some molecules with known bioavailability results, for comparison:
Smiles repr	bioavailability, %
COc1ccc(C(=O)Nc2ncc(Cc3ccc(F)c(C(F)(F)F)c3)s2)cc1OCCO	3
COc1cc(C(=O)Nc2ncc(Cc3cccc(C(F)(F)F)c3)s2)ccc1OCCO	0.2
COc1ccc(C(=O)Nc2ncc(Cc3cccc(Cl)c3)s2)cc1OCCO	12

Q: Quote bioavailability reported for COc1ccc(C(=O)Nc2ncc(Cc3ccc(F)c(Cl)c3)s2)cc1OCCO please.
Ans: 38

Q: Give me measured bioavailability, please, for this molecule: COc1ccc(C(=O)Nc2ncc(Cc3cccc(OC(F)(F)F)c3)s2)cc1OCCO
Ans: 8

---

experiment: Tmax in C57BL/6J mouse at 20 mg/kg, po measured up to 8 hrs; assay type: ADME, organism-based; design: dose 20 mg/kg, route oral; conditions: in vivo
Assay metric: Tmax (min)
Numbers only; they are read as min.

Q: Please look at this compound and report its Tmax: COc1cc(C(=O)Nc2ncc(Cc3cccc(C(F)(F)F)c3)s2)ccc1OCCO
Ans: 30

---

target: Stearoyl-CoA desaturase (Homo sapiens, UniProt O00767); test: Inhibition of human SCD1 expressed in HEK293A cells assessed as conversion of [14C]stearate to [14C]oleate; type: cell-based, HEK293-A
Sequence (O00767 whole entry): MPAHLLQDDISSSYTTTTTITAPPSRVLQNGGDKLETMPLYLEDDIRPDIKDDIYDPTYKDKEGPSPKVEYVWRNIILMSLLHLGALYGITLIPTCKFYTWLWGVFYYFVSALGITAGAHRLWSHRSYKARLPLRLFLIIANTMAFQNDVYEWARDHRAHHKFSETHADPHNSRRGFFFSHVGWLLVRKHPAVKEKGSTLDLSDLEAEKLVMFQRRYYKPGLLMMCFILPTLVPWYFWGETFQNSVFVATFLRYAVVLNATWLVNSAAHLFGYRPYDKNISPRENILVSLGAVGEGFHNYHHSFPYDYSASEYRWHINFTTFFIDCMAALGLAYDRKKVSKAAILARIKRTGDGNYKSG
Please map values of IC50 to classes as shown: band A = under 10 nM, band B = from 10 nM up to 60 nM, band C = 60 nM and over

# example entries with known answers
Smiles repr	Cat
COc1ccc(C(=O)Nc2ncc(Cc3cccc(Cl)c3)s2)cc1OCCO	band A
COc1ccc(C(=O)Nc2ncc(Cc3ccc(F)c(Cl)c3)s2)cc1OCCO	band B
COc1ccc(C(=O)Nc2ncc(Cc3ccc(Cl)c(Cl)c3)s2)cc1OCCO	band B
COc1ccc(C(=O)Nc2ncc(Cc3cc(Cl)ccc3Cl)s2)cc1OCCO	band C
COc1ccc(C(=O)Nc2ncc(Cc3cccc(F)c3)s2)cc1OCCO	band B
COc1ccc(C(=O)Nc2ncc(Cc3cc(F)cc(F)c3)s2)cc1OCCO	band C
COc1ccc(C(=O)Nc2ncc(Cc3ccc(C)c(F)c3)s2)cc1OCCO	band C
COc1ccc(C(=O)Nc2ncc(Cc3ccc(F)c(F)c3)s2)cc1OCCO	band B
COc1ccc(C(=O)Nc2ncc(Cc3ccc(F)c(C(F)(F)F)c3)s2)cc1OCCO	band A
COc1ccc(C(=O)Nc2ncc(Cc3cc(C(F)(F)F)cc(C(F)(F)F)c3)s2)cc1OCCO	band B

Please examine the following record next.
Q: // return the class label for COc1ccc(C(=O)Nc2ncc(Cc3cc(Cl)cc(Cl)c3)s2)cc1OCCO
Ans: band B

---

assay: Cmax in C57BL/6J mouse at 20 mg/kg, po measured up to 8 hrs; format: ADME, organism-based; parameters: dose 20 mg/kg, route oral; conditions: in vivo
Assay metric: Cmax

The following molecules have reported results that may help.
Smiles repr	Cmax
COc1ccc(C(=O)Nc2ncc(Cc3cccc(OC(F)(F)F)c3)s2)cc1OCCO	1200 ng/mL
COc1ccc(C(=O)Nc2ncc(Cc3ccc(F)c(C(F)(F)F)c3)s2)cc1OCCO	550 ng/mL
COc1cc(C(=O)Nc2ncc(Cc3cccc(C(F)(F)F)c3)s2)ccc1OCCO	70 ng/mL
COc1ccc(C(=O)Nc2ncc(Cc3cccc(Cl)c3)s2)cc1OCCO	1800 ng/mL

Q: Supply Cmax value. Item: COc1ccc(C(=O)Nc2ncc(Cc3ccc(F)c(Cl)c3)s2)cc1OCCO
Ans: 3600 ng/mL

---

biological target: UniProtKB P13516
Sequence (P13516 whole entry): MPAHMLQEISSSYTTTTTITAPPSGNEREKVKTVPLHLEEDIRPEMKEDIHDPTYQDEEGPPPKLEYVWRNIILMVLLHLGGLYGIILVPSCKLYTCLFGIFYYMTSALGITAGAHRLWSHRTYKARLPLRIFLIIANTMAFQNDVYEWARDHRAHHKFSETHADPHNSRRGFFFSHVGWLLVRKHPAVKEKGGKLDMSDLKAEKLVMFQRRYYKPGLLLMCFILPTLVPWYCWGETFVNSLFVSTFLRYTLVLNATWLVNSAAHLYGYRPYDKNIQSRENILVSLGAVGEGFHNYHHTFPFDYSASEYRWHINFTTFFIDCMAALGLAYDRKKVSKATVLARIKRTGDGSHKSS
Hi! Just check whether IC50 is below 5 nM. Below gives met, equal or above gives not met.

Smiles repr	Study target	Cat
COc1ccc(C(=O)Nc2ncc(Cc3cccc(F)c3)s2)cc1OCCO	UniProtKB P13516	met
COc1ccc(C(=O)Nc2ncc(Cc3ccc(F)c(Cl)c3)s2)cc1OCCO	UniProtKB P13516	met
COc1ccc(C(=O)Nc2ncc(Cc3cccc(C(C)(C)C)c3)s2)cc1OCCO	UniProtKB P13516	not met

Q: Just wondering, is IC50 of Cc1ccc(C(=O)Nc2ncc(Cc3cccc(C(F)(F)F)c3)s2)cc1C below 5 nM?
Ans: not met

---

target: Stearoyl-CoA desaturase (Homo sapiens, UniProt O00767); test: Inhibition of SCD1 in human microsomes assessed as conversion of [14C]stearate to [14C]oleate after 60 mins; set-up: species or system Microsome
Classify: T when IC50 is strictly less than 2 nM; F when IC50 is not.

Molecule	Study target	Cat
COc1ccc(C(=O)Nc2ncc(Cc3ccc(F)c(F)c3)s2)cc1OCCO	Stearoyl-CoA desaturase (Homo sapiens, UniProt O00767)	F
COc1ccc(C(=O)Nc2ncc(Cc3cccc(C(F)(F)F)c3)s2)cc1OC	Stearoyl-CoA desaturase (Homo sapiens, UniProt O00767)	F
COc1ccc(C(=O)Nc2ncc(Cc3cc(Cl)cc(Cl)c3)s2)cc1OCCO	Stearoyl-CoA desaturase (Homo sapiens, UniProt O00767)	T
COc1ccc(C(=O)Nc2ncc(Cc3cccc(C(F)(F)F)c3)s2)cc1OCCCO	Stearoyl-CoA desaturase (Homo sapiens, UniProt O00767)	F
COc1ccc(C(=O)Nc2ncc(Cc3ccc(Cl)c(Cl)c3)s2)cc1OCCO	Stearoyl-CoA desaturase (Homo sapiens, UniProt O00767)	T

Q: Lab log: compare recorded IC50 with 2 nM; is it strictly lower for COc1cccc(C(=O)Nc2ncc(Cc3cccc(C(F)(F)F)c3)s2)c1 ?
Ans: F

Q: Field: below-cutoff. Rule: recorded IC50 strictly less than 2 nM. Subject: COc1ccc(C(=O)Nc2ncc(Cc3cccc(C(F)(F)F)c3)s2)cc1
Ans: F

Q: Is IC50 of COc1ccc(C(=O)Nc2ncc(Cc3cccc(C(F)(F)F)c3)s2)cc1OCC(O)CO (stereo not given) strictly below 2 nM?
Ans: F

Q: Please let me know if COc1ccc2cc(C(=O)Nc3ncc(Cc4cccc(C(F)(F)F)c4)s3)ccc2c1 shows IC50 below 2 nM.
Ans: F

---

test: AUC (0 to 8 hrs) in C57BL/6J mouse at 20 mg/kg, po measured up to 8 hrs; type: ADME, organism-based; set-up: time < 8 hr, dose 20 mg/kg, route oral; details: plasma
Assay metric: AUC(0-t) at 8 h (ng·h/mL)
The reply should be a number in ng·h/mL, with the unit left off.

Q: Item COc1cc(C(=O)Nc2ncc(Cc3cccc(C(F)(F)F)c3)s2)ccc1OCCO : provide AUC(0-t) at 8 h
Ans: 150

---

assay: Half life in C57BL/6J mouse at 20 mg/kg, po measured up to 8 hrs; format: ADME, organism-based; set-up: time < 8 hr, dose 20 mg/kg, route oral; conditions: in vivo
Assay metric: half-life
Remember to put the unit after the number in your answer.

Q: Consider the compound COc1cc(C(=O)Nc2ncc(Cc3cccc(C(F)(F)F)c3)s2)ccc1OCCO and give its recorded half-life.
Ans: 1.3 h

---

molecular target: Acyl-CoA 6-desaturase (Homo sapiens); test: Inhibition of delta-6 desaturase in human microsomes assessed as conversion of [14C]linolenic acid to [14C]stearidonic acid at 10 uM; conditions: Microsome
Assay metric: inhibition (%)
Only the number, expressed in %, is required.

Smiles repr	Study target	inhibition (%)
COc1cc(C(=O)Nc2ncc(Cc3cccc(C(F)(F)F)c3)s2)ccc1OCCO	Acyl-CoA 6-desaturase (Homo sapiens)	16

Alright, here's another compound for you.
Q: Complete the entry with inhibition for COc1cccc(C(=O)Nc2ncc(Cc3cccc(C(F)(F)F)c3)s2)c1
Ans: 53

---

target: Acyl-CoA 6-desaturase (Homo sapiens) (UniProt O95864); experiment: Inhibition of delta-6 desaturase in human microsomes assessed as conversion of [14C]linolenic acid to [14C]stearidonic acid at 10 uM; conditions: Microsome
Sequence (O95864 whole entry): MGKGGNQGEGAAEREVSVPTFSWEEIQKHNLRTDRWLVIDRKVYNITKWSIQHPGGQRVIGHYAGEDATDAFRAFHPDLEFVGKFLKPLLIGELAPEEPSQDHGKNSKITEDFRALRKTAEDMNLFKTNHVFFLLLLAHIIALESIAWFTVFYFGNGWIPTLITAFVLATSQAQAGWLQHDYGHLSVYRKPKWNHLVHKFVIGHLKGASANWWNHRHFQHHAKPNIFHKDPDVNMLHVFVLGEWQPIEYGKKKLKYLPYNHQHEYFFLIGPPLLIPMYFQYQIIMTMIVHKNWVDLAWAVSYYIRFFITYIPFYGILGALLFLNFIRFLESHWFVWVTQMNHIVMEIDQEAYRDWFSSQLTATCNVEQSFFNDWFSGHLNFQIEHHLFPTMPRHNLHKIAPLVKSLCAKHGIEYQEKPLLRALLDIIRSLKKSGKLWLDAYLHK
Below, each of the molecules is paired with its reported inhibition value.
Numeric only. Scale: %

Smiles repr	Study target	inhibition [%]
COc1ccc(/C=C/C(=O)Nc2ncc(Cc3cccc(C(F)(F)F)c3)s2)cc1	Acyl-CoA 6-desaturase (Homo sapiens) (UniProt O95864)	21

// moving on: another record for inhibition
Q: Give reported inhibition for COc1ccc(C(=O)Nc2ncc(Cc3cccc(C(F)(F)F)c3)s2)cc1OCCO (Acyl-CoA 6-desaturase (Homo sapiens) (UniProt O95864))
Ans: 15

---

experiment: AUC (0 to 8 hrs) in C57BL/6J mouse at 20 mg/kg, po measured up to 8 hrs; format: ADME, organism-based; set-up: time < 8 hr, dose 20 mg/kg, route oral; details: plasma
Known Tmax of a selection of compounds
Answer with a number only, understood to be in h.

Reference set, count: 2
Smiles repr	Measured
COc1ccc(C(=O)Nc2ncc(Cc3cccc(Cl)c3)s2)cc1OCCO	2
COc1ccc(C(=O)Nc2ncc(Cc3ccc(F)c(Cl)c3)s2)cc1OCCO	1

Q: Entry COc1ccc(C(=O)Nc2ncc(Cc3ccc(F)c(C(F)(F)F)c3)s2)cc1OCCO needs its Tmax filled in; supply it.
Ans: 1.3

Q: Return the recorded Tmax value; entry: COc1ccc(C(=O)Nc2ncc(Cc3cccc(OC(F)(F)F)c3)s2)cc1OCCO
Ans: 1.3
